Provenance of the data: paper PMC8270334

# measurement.target: human D2L receptor (Homo sapiens)
# Construct: expressed in transfected cells; host or cells: HEK293
# Sequence (P14416 whole entry): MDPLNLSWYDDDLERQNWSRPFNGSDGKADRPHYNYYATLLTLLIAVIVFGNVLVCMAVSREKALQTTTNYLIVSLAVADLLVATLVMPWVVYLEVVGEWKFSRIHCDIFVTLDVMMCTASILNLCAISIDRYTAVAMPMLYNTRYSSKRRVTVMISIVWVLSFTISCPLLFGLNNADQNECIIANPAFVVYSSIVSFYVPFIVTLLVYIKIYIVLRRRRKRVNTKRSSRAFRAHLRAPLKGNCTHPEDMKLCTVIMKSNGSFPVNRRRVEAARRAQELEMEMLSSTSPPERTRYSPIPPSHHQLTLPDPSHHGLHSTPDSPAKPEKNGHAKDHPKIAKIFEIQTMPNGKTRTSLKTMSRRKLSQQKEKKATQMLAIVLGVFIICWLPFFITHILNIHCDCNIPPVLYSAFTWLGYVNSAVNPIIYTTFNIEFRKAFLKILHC
# protocol.summary: radioligand binding, [3H]-raclopride displacement at D2LR in HEK293 cells
# conditions: HEK-293 cells, ± SEM; read-out: Ki [nM] D2
# Ki per record follows
readout.kind: Ki

[[record]]
smiles_repr = "CC1(C)Cc2cccc(OCCN3CCC(NS(=O)(=O)c4ccc(F)cc4)CC3)c2O1"
measurement_target = "human D2L receptor (Homo sapiens)"
val = "327 nM"

[[record]]
smiles_repr = "CC1(C)Cc2cccc(OCCN3CCC(NS(=O)(=O)c4cc(Cl)ccc4F)CC3)c2O1"
measurement_target = "human D2L receptor (Homo sapiens)"
val = "388 nM"

[[record]]
smiles_repr = "CC1(C)Cc2cccc(OCCN3CCC(NS(=O)(=O)c4cncc5ccccc45)CC3)c2O1"
measurement_target = "human D2L receptor (Homo sapiens)"
val = "326 nM"


---

# measurement.target: human 5-HT7b receptor (Homo sapiens, UniProt P34969)
# Construct: expressed in transfected cells; host or cells: HEK293
# Sequence (P34969 1-432): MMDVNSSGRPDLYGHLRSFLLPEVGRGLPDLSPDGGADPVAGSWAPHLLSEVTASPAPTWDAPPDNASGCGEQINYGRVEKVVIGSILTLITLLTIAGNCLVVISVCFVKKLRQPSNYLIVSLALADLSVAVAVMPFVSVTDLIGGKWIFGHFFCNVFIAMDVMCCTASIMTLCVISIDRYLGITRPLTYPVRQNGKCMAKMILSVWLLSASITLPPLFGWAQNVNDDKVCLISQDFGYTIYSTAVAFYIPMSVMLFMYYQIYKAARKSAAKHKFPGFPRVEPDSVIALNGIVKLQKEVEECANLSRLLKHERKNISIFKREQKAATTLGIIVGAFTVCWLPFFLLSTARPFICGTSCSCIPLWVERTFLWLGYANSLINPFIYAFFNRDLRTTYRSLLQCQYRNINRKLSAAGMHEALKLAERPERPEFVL
# protocol.summary: radioligand binding, [3H]-5-CT displacement at 5-HT7R in HEK293 cells
# conditions: read-out: Ki [nM] ± SEM 5-HT7
readout.kind: Ki (nM)

[[record]]
smiles_repr = "CC1(C)Cc2cccc(OCCN3CCC(CNS(=O)(=O)c4cncc5ccccc45)CC3)c2O1"
val = 387

[[record]]
smiles_repr = "CC1(C)Cc2cccc(OCCN3CCC(NS(=O)(=O)c4cc(Cl)ccc4F)CC3)c2O1"
val = 30

[[record]]
smiles_repr = "CC1(C)Cc2cccc(OCCN3CCC(CNS(=O)(=O)c4cc(Cl)ccc4F)CC3)c2O1"
val = 316

[[record]]
smiles_repr = "COc1ccc(Cl)cc1S(=O)(=O)NCC1CCN(CCOc2cccc3c2OC(C)(C)C3)CC1"
val = 488

[[record]]
smiles_repr = "CC1(C)Cc2cccc(OCCN3CCC(NS(=O)(=O)c4cccc(Cl)c4)CC3)c2O1"
val = 64

[[record]]
smiles_repr = "CC1(C)Cc2cccc(OCCN3CCC(NS(=O)(=O)c4cncc5ccccc45)CC3)c2O1"
val = 91

